- System: Entamoeba histolytica
- Assay Explanation: In vitro amoebicidal activity against HM-1:1MMS strain of Entamoeba histolytica
- Type: functional, organism-based
- Condition Context: Entamoeba histolytica
Assay Metric: IC50 (µM)
Answers are plain numbers, in µM.

The examples below pair each entry with its known result.
Consider the molecule shown here: `S=C(N/N=C/c1cccs1)N1CCCc2ccccc21` What is its recorded IC50?
2.78

`Cc1ncc([N+](=O)[O-])n1CCO` , same question.
2.03

`Fc1cccc(F)c1/N=C(\S)N/N=C/c1cccs1` , same question.
5.73

`S=C(NCc1ccccc1Cl)N/N=C/c1cccs1` , same question.
5.74

`S=C(N/N=C/c1cccs1)N1CCCC1` , same question.
3.2

Then this molecule:
Consider the molecule shown here: `Fc1ccc(/N=C(\S)N/N=C/c2cccs2)c(F)c1` What is its recorded IC50?
6.18
